- TARGET OR SYSTEM: CDK3/Cyclin E1 (Homo sapiens)
- Sequence (Q00526 whole entry): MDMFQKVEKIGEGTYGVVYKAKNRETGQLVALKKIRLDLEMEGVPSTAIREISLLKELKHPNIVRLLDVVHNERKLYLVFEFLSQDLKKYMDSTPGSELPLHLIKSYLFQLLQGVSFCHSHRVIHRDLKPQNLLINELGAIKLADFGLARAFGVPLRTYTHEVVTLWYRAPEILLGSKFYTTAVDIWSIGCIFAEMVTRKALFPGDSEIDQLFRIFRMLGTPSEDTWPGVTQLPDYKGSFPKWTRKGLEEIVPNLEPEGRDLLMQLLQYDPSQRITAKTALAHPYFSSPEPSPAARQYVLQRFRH
- Sequence (P24864 whole entry partner): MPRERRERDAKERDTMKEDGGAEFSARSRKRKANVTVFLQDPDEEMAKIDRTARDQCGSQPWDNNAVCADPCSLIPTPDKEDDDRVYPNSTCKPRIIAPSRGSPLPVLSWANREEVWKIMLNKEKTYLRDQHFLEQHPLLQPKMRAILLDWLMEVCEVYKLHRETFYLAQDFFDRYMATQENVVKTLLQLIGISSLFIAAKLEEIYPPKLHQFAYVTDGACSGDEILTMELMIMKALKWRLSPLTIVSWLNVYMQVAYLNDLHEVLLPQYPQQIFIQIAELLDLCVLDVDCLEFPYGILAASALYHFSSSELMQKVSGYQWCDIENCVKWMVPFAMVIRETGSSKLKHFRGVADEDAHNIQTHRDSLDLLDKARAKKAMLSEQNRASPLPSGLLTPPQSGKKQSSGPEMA
- MEASUREMENT PROTOCOL: NanoBRET live-cell target engagement, CDK3-NanoLuc/Cyclin E1 in HEK-293
- Type: binding
- TEST CONDITIONS: CDK3/E1; experiment 3; read-out: IC50
OUTCOME MEASURE: IC50 (nM)
Give the value, in units of nM, as a plain number.

Query: IC50; subject: CC(C)c1cnn2c(NCc3ccccc3-n3cccn3)nc(OC3CCCNC3)nc12 (stereo not shown) 234

====

- TARGET OR SYSTEM: CDK10/Cyclin L2 (Homo sapiens, UniProt Q15131)
- Sequence (Q15131 whole entry): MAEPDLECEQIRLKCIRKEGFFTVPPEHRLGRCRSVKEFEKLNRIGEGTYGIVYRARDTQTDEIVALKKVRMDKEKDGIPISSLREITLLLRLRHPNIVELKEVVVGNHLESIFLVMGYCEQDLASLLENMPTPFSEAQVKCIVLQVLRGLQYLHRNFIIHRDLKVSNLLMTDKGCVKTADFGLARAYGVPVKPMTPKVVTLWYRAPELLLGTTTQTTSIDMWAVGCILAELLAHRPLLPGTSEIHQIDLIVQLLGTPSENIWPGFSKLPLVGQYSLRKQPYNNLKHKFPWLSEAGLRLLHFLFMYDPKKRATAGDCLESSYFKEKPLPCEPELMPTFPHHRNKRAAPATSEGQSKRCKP
- MEASUREMENT PROTOCOL: cell-based
OUTCOME MEASURE: IC50
A complete answer gives the number and then names the unit.

Write down the reported IC50 of `CCc1cnn2c(NCc3ccc[n+]([O-])c3)cc(N3CCCC[C@H]3CCO)nc12` , test system: CDK10/Cyclin L2 (Homo sapiens, UniProt Q15131). 720 nM

====

- TARGET OR SYSTEM: CDK12/Cyclin K (Homo sapiens)
- Sequence (Q9NYV4 1-1481 isoform Q9NYV4-2): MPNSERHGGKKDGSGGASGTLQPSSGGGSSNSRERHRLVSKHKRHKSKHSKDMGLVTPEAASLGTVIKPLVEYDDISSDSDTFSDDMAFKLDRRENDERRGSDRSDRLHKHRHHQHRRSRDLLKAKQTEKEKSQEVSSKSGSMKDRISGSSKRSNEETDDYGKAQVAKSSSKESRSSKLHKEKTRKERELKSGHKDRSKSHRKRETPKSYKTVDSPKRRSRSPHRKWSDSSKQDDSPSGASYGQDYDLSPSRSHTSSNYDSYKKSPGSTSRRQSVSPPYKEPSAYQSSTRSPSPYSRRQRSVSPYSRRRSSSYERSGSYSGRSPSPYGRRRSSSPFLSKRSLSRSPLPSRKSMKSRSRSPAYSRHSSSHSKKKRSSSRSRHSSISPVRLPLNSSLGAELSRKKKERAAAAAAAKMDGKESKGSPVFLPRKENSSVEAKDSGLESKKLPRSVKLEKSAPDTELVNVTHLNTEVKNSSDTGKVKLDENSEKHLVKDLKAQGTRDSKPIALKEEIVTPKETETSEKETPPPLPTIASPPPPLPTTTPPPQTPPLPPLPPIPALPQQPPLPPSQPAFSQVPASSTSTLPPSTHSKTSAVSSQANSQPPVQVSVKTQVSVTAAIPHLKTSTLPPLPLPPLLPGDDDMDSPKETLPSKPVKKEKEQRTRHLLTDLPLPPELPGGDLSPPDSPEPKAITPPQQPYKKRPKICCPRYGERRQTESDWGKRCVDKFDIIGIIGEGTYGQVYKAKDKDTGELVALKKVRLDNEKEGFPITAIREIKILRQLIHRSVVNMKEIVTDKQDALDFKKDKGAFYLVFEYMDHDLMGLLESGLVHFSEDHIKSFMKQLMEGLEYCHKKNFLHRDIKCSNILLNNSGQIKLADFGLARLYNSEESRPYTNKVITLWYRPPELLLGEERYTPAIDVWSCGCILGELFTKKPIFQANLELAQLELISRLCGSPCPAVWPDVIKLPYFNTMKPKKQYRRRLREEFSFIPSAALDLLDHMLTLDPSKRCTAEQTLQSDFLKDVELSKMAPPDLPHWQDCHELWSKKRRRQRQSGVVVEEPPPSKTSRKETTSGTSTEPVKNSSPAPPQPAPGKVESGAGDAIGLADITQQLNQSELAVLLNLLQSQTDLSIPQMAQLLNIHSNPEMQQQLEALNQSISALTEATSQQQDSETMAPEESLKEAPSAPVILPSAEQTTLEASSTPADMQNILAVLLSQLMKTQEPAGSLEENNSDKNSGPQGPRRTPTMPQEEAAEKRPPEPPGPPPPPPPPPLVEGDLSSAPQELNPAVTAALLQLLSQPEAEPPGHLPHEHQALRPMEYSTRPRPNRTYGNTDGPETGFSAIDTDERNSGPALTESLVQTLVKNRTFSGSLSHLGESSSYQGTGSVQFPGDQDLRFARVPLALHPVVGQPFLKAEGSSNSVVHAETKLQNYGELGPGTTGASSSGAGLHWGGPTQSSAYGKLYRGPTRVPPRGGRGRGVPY
- Sequence (O75909 whole entry partner): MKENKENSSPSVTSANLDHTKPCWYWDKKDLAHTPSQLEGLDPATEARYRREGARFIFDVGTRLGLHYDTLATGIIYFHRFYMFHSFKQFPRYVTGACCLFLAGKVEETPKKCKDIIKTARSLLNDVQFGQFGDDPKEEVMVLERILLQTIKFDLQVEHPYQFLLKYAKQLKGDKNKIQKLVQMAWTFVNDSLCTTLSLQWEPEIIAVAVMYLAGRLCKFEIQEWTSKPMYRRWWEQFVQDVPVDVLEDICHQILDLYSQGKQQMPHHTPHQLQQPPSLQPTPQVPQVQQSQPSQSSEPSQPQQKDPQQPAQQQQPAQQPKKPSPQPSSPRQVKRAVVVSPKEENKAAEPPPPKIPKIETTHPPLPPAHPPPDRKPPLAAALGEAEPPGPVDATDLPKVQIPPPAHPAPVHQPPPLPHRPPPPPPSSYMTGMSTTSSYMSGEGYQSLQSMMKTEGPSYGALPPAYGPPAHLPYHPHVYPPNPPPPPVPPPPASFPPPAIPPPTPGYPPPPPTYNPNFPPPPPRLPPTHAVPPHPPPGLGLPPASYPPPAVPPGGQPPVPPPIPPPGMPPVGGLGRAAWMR
- MEASUREMENT PROTOCOL: NanoBRET live-cell target engagement, CDK12-NanoLuc/Cyclin K in HEK-293
- Format: binding
- TEST CONDITIONS: CDK12/K; average
Inhibition at 10µM (%) less than 40% is MET; Inhibition at 10µM (%) greater than or equal to 40% is NOT MET.

Some solved entries appear below for comparison.
CCn1cnc2c(Nc3cccc(Cl)c3)nc(N[C@@H]3CCCC[C@@H]3N)nc21 [CGP74514A] | MET
CS(=O)(=O)N1CCC(NC(=O)c2[nH]ncc2NC(=O)c2c(Cl)cccc2Cl)CC1 [NVP-LCQ195] | MET
CC(C)c1cnn2c(NCc3ccccc3-n3cccn3)nc(OC3CCCNC3)nc12 (stereo not drawn) [LDC4297] | MET
CNc1nc(C)c(-c2nc(Nc3cccc(S(N)(=O)=O)c3)ncc2F)s1 [CDKI-73] | NOT MET
CC(C)c1c2cc(-c3ccnc(N[C@H]4CC[C@H](NC5CCOCC5)CC4)n3)ccc2nn1C [LY2857785] | NOT MET

Please find the next compound below.
Given the entry CN1CCC(c2c(O)cc(O)c3c(=O)cc(-c4ccccc4Cl)oc23)C1CO (stereo not drawn) [P276-00] , would its reported Inhibition at 10µM (%) be below 40%? MET

====

- TARGET OR SYSTEM: CDK11B/Cyclin L2 (Homo sapiens, UniProt P21127)
- Sequence (P21127 1-782 isoform P21127-2): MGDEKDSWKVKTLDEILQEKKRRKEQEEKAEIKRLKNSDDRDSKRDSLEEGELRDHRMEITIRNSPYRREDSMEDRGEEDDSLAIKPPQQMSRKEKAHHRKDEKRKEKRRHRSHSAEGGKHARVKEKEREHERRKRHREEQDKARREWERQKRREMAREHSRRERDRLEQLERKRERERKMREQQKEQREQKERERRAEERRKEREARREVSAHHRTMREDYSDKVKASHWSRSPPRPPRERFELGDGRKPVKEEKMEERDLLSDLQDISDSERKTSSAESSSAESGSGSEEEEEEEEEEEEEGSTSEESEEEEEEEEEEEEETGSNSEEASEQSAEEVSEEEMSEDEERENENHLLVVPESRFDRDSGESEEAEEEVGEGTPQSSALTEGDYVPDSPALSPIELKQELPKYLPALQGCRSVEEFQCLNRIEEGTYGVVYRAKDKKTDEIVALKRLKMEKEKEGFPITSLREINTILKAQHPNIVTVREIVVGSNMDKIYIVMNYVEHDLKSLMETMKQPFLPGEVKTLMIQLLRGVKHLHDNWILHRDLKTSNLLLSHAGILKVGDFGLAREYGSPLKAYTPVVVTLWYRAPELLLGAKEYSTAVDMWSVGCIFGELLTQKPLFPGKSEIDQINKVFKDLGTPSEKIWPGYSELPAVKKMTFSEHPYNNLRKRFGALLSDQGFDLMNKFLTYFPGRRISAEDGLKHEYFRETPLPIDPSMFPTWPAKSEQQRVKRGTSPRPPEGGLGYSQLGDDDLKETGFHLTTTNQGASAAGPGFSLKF
- MEASUREMENT PROTOCOL: NanoBRET live-cell target engagement, CDK11B-NanoLuc/Cyclin L2 in HEK-293
- Type: binding
- TEST CONDITIONS: 10µM; independent experiment 2; read-out: CDK11b/L2 Inhibition at 10µM (%)
Label satisfied when inhibition at 10 µM >= 30%; otherwise not satisfied.

Some solved entries appear below for comparison.
CC(C)[C@H](CO)Nc1nc(Nc2ccc(C(=O)O)c(Cl)c2)c2ncn(C(C)C)c2n1 | not satisfied
CC(C)CC(=O)Nc1[nH]nc2c1CN(C(=O)C1CCN(C)CC1)C2(C)C | satisfied
CN1C/C=C/CCOc2cccc(c2)-c2ccnc(n2)Nc2cccc(c2)C1 | satisfied

Please find the next compound below.
hey, is inhibition at 10 µM for this one >= 30%? `CN(C)C/C=C/C(=O)Nc1ccc(C(=O)N2CCC[C@@H](Nc3ncc(Cl)c(-c4c[nH]c5ccccc45)n3)C2)cc1` satisfied
